target: IP-3 receptor (Rattus norvegicus); construct: determined using rat cerebellum membrane preparations; from tissue; host or cells: rat cerebellum (microsomal membrane preparation); experiment: IP-3 receptor antagonistic effect: inhibition of IP3 binding to its receptor in rat cerebellum membrane preparations; conditions: read-out: IC 50 (μg/ml) Average ± SEM (n) (converted)
Where a name gives a salt, the structure may show the parent alone.
Recorded Metric: IC50 (nM)

a. O=S(=O)(O)OC[C@@H](OS(=O)(=O)O)[C@@H](OS(=O)(=O)O)[C@H](OS(=O)(=O)O)[C@@H](CO[C@H]1OC[C@@H](OS(=O)(=O)O)[C@@H](OS(=O)(=O)O)[C@@H]1OS(=O)(=O)O)OS(=O)(=O)O [Example 16, potassium salt]
b. O=S(=O)(O)OC[C@H](OS(=O)(=O)O)[C@@H](OS(=O)(=O)O)[C@H](O[C@@H]1O[C@H](COS(=O)(=O)O)[C@H](OS(=O)(=O)O)[C@H](OS(=O)(=O)O)[C@H]1OS(=O)(=O)O)[C@@H](COS(=O)(=O)O)OS(=O)(=O)O [Example 7, potassium salt]
Determine, for a and b , which has the greater value of IC50. State the label of the item chosen.
a
(a: 2020 nM, b: 338 nM)

P. O=S(=O)(O)OC[C@H](OS(=O)(=O)O)[C@@H](OS(=O)(=O)O)[C@H](OS(=O)(=O)O)[C@@H](CO[C@@H]1O[C@H](COS(=O)(=O)O)[C@@H](OS(=O)(=O)O)[C@H](OS(=O)(=O)O)[C@H]1OS(=O)(=O)O)OS(=O)(=O)O [Example 2, potassium salt]
Q. O=S(=O)(O)OCC(OS(=O)(=O)O)C(OC1OC(COS(=O)(=O)O)C(OS(=O)(=O)O)C(OS(=O)(=O)O)C1OS(=O)(=O)O)C(OS(=O)(=O)O)C(COS(=O)(=O)O)OS(=O)(=O)O (stereo not shown) [Example 6, potassium salt]
Among P and Q , whose measured IC50 is the smaller figure? State the label of the item chosen.
Q
(Q: 338 nM, P: 1870 nM)

###

target: IP-3 receptor (Rattus norvegicus, UniProt P29994); construct: determined using rat cerebellum membrane preparations; from tissue; host or cells: rat cerebellum (microsomal membrane preparation); test: IP-3 receptor antagonistic effect: inhibition of IP3 binding to its receptor in rat cerebellum membrane preparations; details: read-out: IC 50 (μg/ml) Average ± SEM (n) (converted)
Sequence (P29994 whole entry): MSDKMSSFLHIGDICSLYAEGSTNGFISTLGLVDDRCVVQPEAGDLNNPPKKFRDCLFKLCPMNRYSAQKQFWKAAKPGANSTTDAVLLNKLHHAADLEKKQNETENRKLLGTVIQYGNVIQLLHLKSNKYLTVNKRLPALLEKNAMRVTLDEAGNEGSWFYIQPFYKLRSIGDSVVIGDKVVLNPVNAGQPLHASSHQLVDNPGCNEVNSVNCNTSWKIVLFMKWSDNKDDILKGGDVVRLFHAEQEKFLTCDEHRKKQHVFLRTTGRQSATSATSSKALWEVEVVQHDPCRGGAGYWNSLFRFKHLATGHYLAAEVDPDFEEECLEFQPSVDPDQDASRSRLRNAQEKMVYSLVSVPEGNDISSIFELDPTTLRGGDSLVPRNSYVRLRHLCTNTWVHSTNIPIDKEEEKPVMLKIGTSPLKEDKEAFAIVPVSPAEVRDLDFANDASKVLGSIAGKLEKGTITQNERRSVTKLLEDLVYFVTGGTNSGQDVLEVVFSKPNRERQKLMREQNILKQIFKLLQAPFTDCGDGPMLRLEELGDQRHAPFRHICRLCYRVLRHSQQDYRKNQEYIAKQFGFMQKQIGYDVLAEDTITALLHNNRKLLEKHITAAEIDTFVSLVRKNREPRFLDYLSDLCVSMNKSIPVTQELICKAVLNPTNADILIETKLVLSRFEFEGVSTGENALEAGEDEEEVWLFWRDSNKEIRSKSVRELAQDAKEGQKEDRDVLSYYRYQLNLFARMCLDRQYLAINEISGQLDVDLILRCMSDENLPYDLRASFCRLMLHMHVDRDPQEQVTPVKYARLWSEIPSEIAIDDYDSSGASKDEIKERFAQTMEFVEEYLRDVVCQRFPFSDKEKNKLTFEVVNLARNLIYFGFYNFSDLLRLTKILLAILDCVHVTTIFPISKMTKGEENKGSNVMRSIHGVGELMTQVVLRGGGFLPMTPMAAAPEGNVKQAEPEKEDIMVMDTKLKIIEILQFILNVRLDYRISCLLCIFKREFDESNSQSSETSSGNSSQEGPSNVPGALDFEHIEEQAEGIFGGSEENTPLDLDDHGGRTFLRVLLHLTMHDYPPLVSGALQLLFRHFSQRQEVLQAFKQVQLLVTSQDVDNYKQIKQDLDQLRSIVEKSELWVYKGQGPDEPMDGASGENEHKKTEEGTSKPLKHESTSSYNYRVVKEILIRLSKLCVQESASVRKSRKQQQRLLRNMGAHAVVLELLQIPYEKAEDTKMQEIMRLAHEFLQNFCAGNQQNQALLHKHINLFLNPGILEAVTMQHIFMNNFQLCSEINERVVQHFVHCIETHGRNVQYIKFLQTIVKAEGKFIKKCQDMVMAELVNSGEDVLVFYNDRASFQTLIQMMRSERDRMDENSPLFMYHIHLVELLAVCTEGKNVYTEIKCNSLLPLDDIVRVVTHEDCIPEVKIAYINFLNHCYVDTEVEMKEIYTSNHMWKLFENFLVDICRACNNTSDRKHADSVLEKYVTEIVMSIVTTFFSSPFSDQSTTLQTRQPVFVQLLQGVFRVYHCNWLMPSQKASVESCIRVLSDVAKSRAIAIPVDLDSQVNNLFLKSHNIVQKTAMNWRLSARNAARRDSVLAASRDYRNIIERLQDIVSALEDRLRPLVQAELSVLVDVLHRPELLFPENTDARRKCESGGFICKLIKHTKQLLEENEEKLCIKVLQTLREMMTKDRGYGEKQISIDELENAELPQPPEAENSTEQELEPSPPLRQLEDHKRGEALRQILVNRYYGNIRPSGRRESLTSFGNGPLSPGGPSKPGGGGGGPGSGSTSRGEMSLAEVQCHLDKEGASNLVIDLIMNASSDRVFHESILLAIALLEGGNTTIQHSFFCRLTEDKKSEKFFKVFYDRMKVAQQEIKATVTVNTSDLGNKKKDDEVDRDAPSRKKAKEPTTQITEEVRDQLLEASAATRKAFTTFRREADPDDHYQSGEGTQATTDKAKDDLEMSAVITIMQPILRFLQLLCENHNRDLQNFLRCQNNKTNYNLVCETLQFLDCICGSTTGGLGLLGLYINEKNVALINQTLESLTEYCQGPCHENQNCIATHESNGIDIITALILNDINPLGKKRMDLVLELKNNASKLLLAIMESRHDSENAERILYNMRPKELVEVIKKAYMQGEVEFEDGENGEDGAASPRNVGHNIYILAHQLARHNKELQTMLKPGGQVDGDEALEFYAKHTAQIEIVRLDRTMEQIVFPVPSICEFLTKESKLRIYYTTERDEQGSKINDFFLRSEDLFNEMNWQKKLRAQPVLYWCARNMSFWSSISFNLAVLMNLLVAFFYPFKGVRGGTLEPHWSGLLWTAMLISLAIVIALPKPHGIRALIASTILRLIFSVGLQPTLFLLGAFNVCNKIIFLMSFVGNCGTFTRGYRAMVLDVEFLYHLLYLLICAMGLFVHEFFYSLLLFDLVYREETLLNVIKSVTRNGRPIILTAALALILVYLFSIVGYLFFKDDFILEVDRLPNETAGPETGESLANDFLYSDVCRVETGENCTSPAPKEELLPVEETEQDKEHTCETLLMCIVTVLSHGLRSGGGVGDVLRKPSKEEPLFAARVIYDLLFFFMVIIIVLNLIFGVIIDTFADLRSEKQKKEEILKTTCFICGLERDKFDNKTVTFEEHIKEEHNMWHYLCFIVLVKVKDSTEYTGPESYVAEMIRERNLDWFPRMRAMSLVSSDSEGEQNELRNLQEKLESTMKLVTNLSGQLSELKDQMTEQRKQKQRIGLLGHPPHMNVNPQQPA
Where a name gives a salt, the structure may show the parent alone.
The following compounds are shown together with reported IC50 values.
Give the value, in units of nM, as a plain number.

| Compound | Reading |
| --- | --- |
| O=S(=O)(O)OC[C@H]1O[C@@H](OC[C@H](OS(=O)(=O)O)[C@@H](OS(=O)(=O)O)[C@H](OS(=O)(=O)O)[C@@H](COS(=O)(=O)O)OS(=O)(=O)O)[C@H](OS(=O)(=O)O)[C@@H](OS(=O)(=O)O)[C@@H]1OS(=O)(=O)O [Example 3, potassium salt] | 535 |

Which IC50 is listed for O=S(=O)(O)OC[C@H]1O[C@@H](OC[C@@H](OS(=O)(=O)O)[C@@H](OS(=O)(=O)O)[C@H](OS(=O)(=O)O)[C@@H](CO[C@@H]2O[C@H](COS(=O)(=O)O)[C@@H](OS(=O)(=O)O)[C@H](OS(=O)(=O)O)[C@H]2OS(=O)(=O)O)OS(=O)(=O)O)[C@H](OS(=O)(=O)O)[C@@H](OS(=O)(=O)O)[C@@H]1OS(=O)(=O)O [Example 9, potassium salt] ?
832

Which IC50 is listed for CO[C@@H]([C@H](OC)[C@@H](COS(=O)(=O)O)OS(=O)(=O)O)[C@@H](CO[C@@H]1O[C@H](CO[C@@H]2O[C@H](COS(=O)(=O)O)[C@@H](OS(=O)(=O)O)[C@H](OS(=O)(=O)O)[C@H]2OS(=O)(=O)O)[C@@H](OS(=O)(=O)O)[C@H](OS(=O)(=O)O)[C@H]1OS(=O)(=O)O)OS(=O)(=O)O [Example 14, potassium salt] ?
7830

The values you see were collected from patent US8987216B2.
